Attribution: PubChem BioAssay (NCATS)

molecular target: Nicotinamide N-methyltransferase (Homo sapiens); experiment: Confirmatory Screen for Target Class Profiling of Small Molecule Inhibitors of Methyltransferases (AID 1745852); conditions: MTase-Glo luminescence, SAH detection, recombinant enzyme; measured here: NNMT max response; stronger effect = lower value
ASSAY_METRIC: activity (%)

Cc1[nH]c2ccc(Cl)cc2c1CCN(C)C    -4.68
C[C@H]1CCC[C@H](O)CCC/C=C/c2cc(O)cc(O)c2C(=O)O1    -89
N#Cc1cn([C@@H]2O[C@H](CO)[C@H](O)[C@@H]2O)c2ncnc(N)c12    -89.8
O=C1Nc2ccc3ncsc3c2/C1=C/c1cnc[nH]1    -8.72
C=C(CO)C(=O)O[C@H]1CC(=C)[C@@H]2C[C@H](O)C(=C)[C@@H]2[C@H]2OC(=O)C(=C)[C@@H]21    -6.26
C#C[C@]1(O)CC[C@H]2[C@@H]3CC[C@H]4Cc5nc6nc7ccccc7n6cc5C[C@]4(C)[C@H]3CC[C@@]21C    -21
Oc1ccc2c(c1)C13CCCC[C@H]1[C@@H](C2)N(CC1CCC1)CC3    -13.8
CCCN(CCC)[C@@H]1CCc2ccc3[nH]c(C#N)cc3c2C1    -9.72
CCOC(=O)c1ccnc2cc(C(OCCN3CCCCC3)c3ccccc3Cl)sc12 (centres undefined)    -18.4
CCC1CN2CCc3cc(OC)c(OC)cc3C2CC1CC1=NCCc2cc(O)c(OC)cc21 (centres undefined)    -6.53
C[C@H]1O[C@@H](O[C@H]2CC[C@]3(CO)C4CC[C@]5(C)[C@@H](C6=CC(=O)OC6)CC[C@]5(O)[C@@H]4CC[C@H]3C2)[C@H](O)[C@H](O)[C@@H]1O[C@@H]1O[C@H](CO)[C@@H](O)[C@H](O)[C@H]1O (some centres undefined)    -7.07
COc1cc(N2CCN(C)CC2)ccc1N    -3.44
CC(C)OC(=O)c1ccnc2cc(C(OCCN3CCCCC3)c3ccccc3Cl)sc12 (centres undefined)    -30.3
CCCCN1[C@@H]2CC[C@H]1CC(OC(c1ccc(F)cc1)c1ccc(F)cc1)C2 (some centres undefined)    -14
